# TARGET ENTITY: α4β2 nAChR (Homo sapiens (Human), UniProt P17787+P43681)
# Sequence (P43681 29-627): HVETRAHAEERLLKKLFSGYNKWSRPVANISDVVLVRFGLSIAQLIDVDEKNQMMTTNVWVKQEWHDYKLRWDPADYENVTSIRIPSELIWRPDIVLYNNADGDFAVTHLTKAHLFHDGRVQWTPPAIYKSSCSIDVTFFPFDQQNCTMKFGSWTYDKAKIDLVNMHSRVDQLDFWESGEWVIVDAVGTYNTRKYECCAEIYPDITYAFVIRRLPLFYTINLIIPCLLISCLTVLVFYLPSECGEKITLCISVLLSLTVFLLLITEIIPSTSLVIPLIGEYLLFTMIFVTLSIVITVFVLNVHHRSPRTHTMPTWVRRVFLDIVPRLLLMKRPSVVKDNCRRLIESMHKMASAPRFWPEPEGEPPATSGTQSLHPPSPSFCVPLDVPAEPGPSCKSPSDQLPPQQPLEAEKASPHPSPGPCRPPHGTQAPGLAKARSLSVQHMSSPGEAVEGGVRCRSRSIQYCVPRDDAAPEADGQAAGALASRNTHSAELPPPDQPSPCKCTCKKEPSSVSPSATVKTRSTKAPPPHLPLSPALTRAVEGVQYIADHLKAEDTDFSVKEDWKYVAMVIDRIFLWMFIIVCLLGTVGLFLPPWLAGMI
# Sequence (P17787 26-502): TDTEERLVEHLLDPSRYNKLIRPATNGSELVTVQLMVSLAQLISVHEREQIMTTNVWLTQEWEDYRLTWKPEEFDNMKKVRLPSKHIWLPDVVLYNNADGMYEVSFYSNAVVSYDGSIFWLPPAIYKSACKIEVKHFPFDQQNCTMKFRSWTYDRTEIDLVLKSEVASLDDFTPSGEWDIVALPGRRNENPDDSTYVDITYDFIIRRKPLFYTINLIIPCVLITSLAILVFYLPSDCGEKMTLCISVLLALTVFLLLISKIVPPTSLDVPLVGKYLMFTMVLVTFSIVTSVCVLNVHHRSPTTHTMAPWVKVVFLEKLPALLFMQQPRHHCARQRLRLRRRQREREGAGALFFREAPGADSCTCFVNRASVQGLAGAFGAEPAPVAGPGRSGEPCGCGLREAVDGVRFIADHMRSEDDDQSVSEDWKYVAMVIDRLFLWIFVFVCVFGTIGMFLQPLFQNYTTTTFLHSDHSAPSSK
# PROCEDURE SUMMARY: nAChR binding affinity, α4β2 subtype
MEASURE: pKi
One number for each entry, as −log10 of the molar value.

Quick one: pKi for c1cncc(C[C@@H]2[C@@H](Oc3ccc(-c4ccc5[nH]ccc5c4)nn3)C3CCN2CC3)c1 (racemic) ?
7.14
